Recorded values, source the supplement of paper PMC12667976.

B1: library; numbered along this chain (parent)
chain: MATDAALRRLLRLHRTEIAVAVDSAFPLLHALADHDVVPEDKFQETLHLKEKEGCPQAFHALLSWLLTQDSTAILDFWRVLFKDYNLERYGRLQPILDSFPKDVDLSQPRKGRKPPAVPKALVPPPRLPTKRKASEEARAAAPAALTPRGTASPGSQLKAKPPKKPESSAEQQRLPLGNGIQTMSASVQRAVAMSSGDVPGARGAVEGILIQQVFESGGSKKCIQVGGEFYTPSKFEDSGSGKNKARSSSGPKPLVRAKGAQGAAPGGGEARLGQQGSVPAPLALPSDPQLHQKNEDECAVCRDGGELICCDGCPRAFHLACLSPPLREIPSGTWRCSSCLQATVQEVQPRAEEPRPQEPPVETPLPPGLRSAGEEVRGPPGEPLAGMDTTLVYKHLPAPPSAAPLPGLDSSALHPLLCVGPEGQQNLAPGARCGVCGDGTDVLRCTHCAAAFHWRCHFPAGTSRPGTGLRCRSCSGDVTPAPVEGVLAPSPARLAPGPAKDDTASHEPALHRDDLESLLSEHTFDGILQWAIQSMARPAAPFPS

- Variants of: B1
- protocolDescription: AIRE transcriptional activation functional score (insulin promoter-GFP; nonsense median 0, synonymous median 1) (normalised score); higher = higher AIRE activity (more reporter activation)
- conditionSummary: with insulin promoter-GFP reporter in HEK293
observedProperty: AIRE transcriptional activation functional score

| changes | resultNumber |
| --- | --- |
| T344N | 0.983 |
| R456A | 1.16 |
| A140R | 1.14 |
| D526C | -0.576 |
| H454C | 0.499 |
| P119C | 1.04 |
| A33S | 0.0699 |
| A300Q | 0.413 |
| G382A | 0.906 |
| G408K | 1.14 |
| S518V | 1.12 |
| L323E | 1.47 |
| D105S | -0.0361 |
| Q182K | 1.73 |
| A202N | 1.59 |
| K42P | -0.0735 |
| P233Q | 0.416 |
| Q342I | 1 |
| L7Q | 0.381 |
| P361D | 1.15 |
| L283Y | 1.19 |
| P166T | 1.36 |
